- PROTOCOL DESCRIPTION: p53 small molecule agonists, cell-based qHTS assay with rat liver microsomes (AID 1963578); also: % is scaled to controls: 0 for no effect and ±100 for the full control effect
- CONDITIONS: HCT-116 p53RE-bla, beta-lactamase ratio, 16 h; series mostly up to 66 µM
Results filed as inconclusive are left out. Activity calls are given as the source filed them. Calls follow the shape of the full dose curve.

MOLECULE	activation
NC(Cc1ccc(F)cc1)C(=O)O (centres undefined)	1.09% [at 5.99 µM] (inactive)
Cc1c(C)n(Cc2ccccc2)c2ccc(C(=O)OCCN(C)C)cc12	inactive
CC1=C(/C=C/C(C)=C/C=C/C(C)=C\C=O)C(C)(C)CCC1	inactive
O=C1c2ccccc2C(=O)c2c(O)ccc(O)c21	inactive
